- System: Human rhinovirus sp.
- RUN DESCRIPTION: Antiviral activity against human rhinovirus-14 in HeLa cells
- Format: functional, organism-based
pIC50: −log10 of the molar value. Where a SMILES comes first, the peptide text is derived from it. The star is where a group is joined. Boc = CC(C)(C)OC(=O)*
READOUT LABEL: pIC50

MOLECULE | READOUT LABEL | OBSERVED RESULT
CC(C)C[C@H](NC(=O)[C@@H](NC(=O)OC(C)(C)C)C(C)C)C(=O)N[C@@H](Cc1ccccc1)C(=O)N[C@H](C=O)CCC(N)=O (Boc-VLFQ-aldehyde) | pIC50 | 3.40
CCCC[C@@H](C=O)NC(=O)[C@H](CC(C)C)NC(=O)OCc1ccccc1 [CALPEPTIN] | pIC50 | 4.75

(1) CSCC[C@@H](C=O)NC(=O)[C@H](Cc1ccccc1)NC(=O)OC(C)(C)C (Boc-Phe-Met-aldehyde)
(2) CS(=O)(=O)CC[C@@H](C=O)NC(=O)[C@H](Cc1ccccc1)NC(=O)OCc1ccccc1
Task item: Lab notebook, comparison: 1 versus 2 , higher pIC50 goes to which? Selection: enter the item's label.
Reply: 2
(2: 5.47, 1: 4.08)
